From: ChEMBL document CHEMBL5370613

# RUN_DESCRIPTION: Volume of distribution in elimination phase in female CD-1 mouse at 5 mg/kg, sc measured for 480 mins by LC-MS/MS analysis
# Type: ADME, organism-based
# MEASUREMENT_CONTEXT: in vivo, read-out: Vz/F
PROPERTY_NAME: Vd/F (L/kg)
Numbers only, in L/kg.

// Vd/F lookup, compound = C#C[C@H](O)C#Cc1ccc(CCCCCCCC)cc1 , result: 143

* * *

# RUN_DESCRIPTION: Cmax in female CD-1 mouse at 5 mg/kg, iv measured for 480 mins by LC-MS/MS analysis
# Format: ADME, organism-based
# Parameters: time 480 min, dose 5 mg/kg, route iv
# MEASUREMENT_CONTEXT: in vivo
PROPERTY_NAME: Cmax (µM)
One number for each entry, in µM.

Cmax recorded for this compound, C#C[C@H](O)C#Cc1ccc(CCCCCCCC)cc1 , is 17
